Assay: Cytotoxicity in the mt-Keima assay cells (FACS, DAPI)
Assay type: cell-based
Settings: human, hela mkyp cells; with 1 μM FCCP/oligomycin (FO); read-out: Max % death with 1 μM FO
readout-name: cytotoxicity (%)
Report the figure in % without appending any unit label.

Ask | Report cytotoxicity for C[C@@H]1CN([C@H]2COc3cc(F)ccc3[C@@H]2Nc2ncnc3[nH]c(C(F)(F)F)cc23)CCO1 please.
Reply | 29.6

###

Experiment: In Vitro Mitotoxicity (glucose/galactose) Assay
Type: cell-based
Conditions: human, skov3 cells; mitotox or cytotox; highest concentration at which gal/glc > 0.80 (IC20); 20 hours; read-out: Highest safe dose (mitotox or cytotox)
Protocol: Briefly, SKOV3 cells (ATCC HTB-77) were plated in DMEM (Corning 10-013-CV) medium containing 25 mM glucose or DMEM with no glucose (Gibco 11966-025) supplemented with 10 mM galactose at 9,000 cells/well in 96 well plates (Corning costar 3610). […] After a 15 minute incubation cellular ATP levels were read out using a Promega GloMax® DiscoverMicroplate Reader. The ratio of relative CellTiter-Glo values from cells grown in galactose to cells grown in glucose was determined (gal/glc ratio). […]
readout-name: IC20 at 20 h (µM)
# value in µM; strip the unit string

Ask | Quick check: IC20 at 20 h of C[C@@H]1CN([C@H]2COc3cc(F)ccc3[C@@H]2Nc2ncnc3[nH]c(C(F)(F)F)cc23)CCO1 ?
Reply | 17.3

###

Assay: In Vitro Mitotoxicity (glucose/galactose) Assay
Assay type: cell-based
Conditions: human, skov3 cells; highest mito-safe dose divided by the mt-Keima EC50 dose; read-out: Mito-Safety Index (highest safe dose/EC50)
readout-name: selectivity ratio
// response body must contain only the number

Ask | For the compound shown here, C[C@@H]1CN([C@H]2COc3cc(F)ccc3[C@@H]2Nc2ncnc3[nH]c(C(F)(F)F)cc23)CCO1 , give the reported selectivity ratio.
Reply | 135

Source: patent US20260356839A1
